target: ABI1 SH3 domain (aa 446-505) (Homo sapiens, UniProt Q8IZP0)
Sequence (Q8IZP0 446-505): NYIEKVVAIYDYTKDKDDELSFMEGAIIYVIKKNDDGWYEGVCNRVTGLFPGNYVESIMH
Peptide text beside a SMILES is read from it.
quantity measured: Kd

[
  {
    "compound": "CC(C)C[C@H](NC(=O)[C@@H]1CCCN1C(=O)[C@@H]1CCCN1C(=O)[C@H](CO)NC(=O)[C@@H]1CCCN1C(=O)[C@H](CC(C)C)NC(=O)[C@H](Cc1c[nH]cn1)NC(=O)[C@@H](N)CCCNC(=N)N)C(=O)N[C@H](C(=O)N[C@@H](CCC(N)=O)C(=O)O)[C@@H](C)O [Peptide P8] (H-RHLPSPPLTQ-OH; N-terminus and C-terminus assumed)",
    "Kd": "> 200 µM"
  }
]

**Query** Bench note: what Kd did CC(C)C[C@H](NC(=O)[C@@H]1CCCN1C(=O)[C@@H](NC(=O)[C@H](CCCNC(=N)N)NC(=O)[C@@H]1CCCN1C(=O)[C@H](CO)NC(=O)[C@H](CC(N)=O)NC(=O)[C@@H]1CCCN1C(=O)[C@H](C)NC(=O)[C@@H](N)CO)[C@@H](C)O)C(=O)N[C@H](C(=O)N1CCC[C@H]1C(=O)N1CCC[C@H]1C(=O)N1CCC[C@H]1C(=O)N[C@@H](C)C(=O)N[C@@H](CO)C(=O)O)[C@@H](C)O [Peptide P1] (H-SAPNSPRTPLTPPPAS-OH) show?
**Result** > 200 µM

**Query** Record: CC(C)[C@H](NC(=O)[C@@H]1CCCN1C(=O)[C@@H]1CCCN1C(=O)[C@H](C)NC(=O)[C@H](CCC(=O)O)NC(=O)[C@H](CS)NC(=O)[C@@H](N)CCCNC(=N)N)C(=O)N1CCC[C@H]1C(=O)N1CCC[C@H]1C(=O)N[C@@H](CCCNC(=N)N)C(=O)N[C@@H](CCCNC(=N)N)C(=O)N[C@@H](CCC(=O)O)C(=O)N[C@@H](CCCNC(=N)N)C(=O)NCC(=O)O [RP2, reference compound] (H-RCEAPPVPPRRERG-OH)
**Result** > 200 µM

**Query** Record: CC(C)C[C@H](NC(=O)[C@@H](NC(=O)[C@@H](N)C(C)C)[C@@H](C)O)C(=O)N1CCC[C@H]1C(=O)N[C@@H](Cc1c[nH]cn1)C(=O)NCC(=O)N1CCC[C@H]1C(=O)N[C@@H](CCCNC(=N)N)C(=O)N[C@@H](CO)C(=O)N[C@@H](C)C(=O)O [Peptide P2] (H-VTLPHGPRSA-OH)
**Result** 60.7 µM

###

GRB2-1 SH3 domain (aa 1-58) (Homo sapiens, UniProt P62993) measurements of Kd, listed per entry.
Sequence (P62993 1-58): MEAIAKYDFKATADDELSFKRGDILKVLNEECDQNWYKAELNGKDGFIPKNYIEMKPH
Peptide text beside a SMILES is read from it.

Some solved cases for reference:
[
  {
    "molecule": "CC[C@H](C)[C@H](N)C(=O)N[C@@H](C)C(=O)NCC(=O)N1CCC[C@H]1C(=O)N1CCC[C@H]1C(=O)N[C@H](C(=O)N1CCC[C@H]1C(=O)N1CCC[C@H]1C(=O)N[C@@H](CCCNC(=N)N)C(=O)N[C@@H](CCC(N)=O)C(=O)N[C@@H](CO)C(=O)O)C(C)C [Peptide P9] (H-IAGPPVPPRQS-OH)",
    "target": "GRB2-1 SH3 domain (aa 1-58) (Homo sapiens, UniProt P62993)",
    "Kd": "> 200 µM"
  },
  {
    "molecule": "CC[C@H](C)[C@H](NC(=O)[C@H](Cc1c[nH]cn1)NC(=O)[C@@H](N)CCC(N)=O)C(=O)N1CCC[C@H]1C(=O)N[C@@H](CCCCN)C(=O)N[C@@H](CC(C)C)C(=O)N1CCC[C@H]1C(=O)N1CCC[C@H]1C(=O)N[C@@H](CCCCN)C(=O)N[C@H](C(=O)N[C@@H](Cc1ccc(O)cc1)C(=O)O)[C@@H](C)O [Peptide P10] (H-QHIPKLPPKTY-OH; N-terminus and C-terminus assumed)",
    "target": "GRB2-1 SH3 domain (aa 1-58) (Homo sapiens, UniProt P62993)",
    "Kd": "> 200 µM"
  }
]

**Query** Bench note: what Kd did CC(C)[C@H](NC(=O)[C@@H]1CCCN1C(=O)[C@@H]1CCCN1C(=O)[C@H](C)NC(=O)[C@H](CCC(=O)O)NC(=O)[C@H](CS)NC(=O)[C@@H](N)CCCNC(=N)N)C(=O)N1CCC[C@H]1C(=O)N1CCC[C@H]1C(=O)N[C@@H](CCCNC(=N)N)C(=O)N[C@@H](CCCNC(=N)N)C(=O)N[C@@H](CCC(=O)O)C(=O)N[C@@H](CCCNC(=N)N)C(=O)NCC(=O)O [RP2, reference compound] (H-RCEAPPVPPRRERG-OH) show?
**Result** 20 µM

###

Peptide text beside a SMILES is read from it.
SNX9 SH3 domain (aa 1-62) (Homo sapiens, UniProt Q9Y5X1) measurements of Kd, listed per entry.
Sequence (Q9Y5X1 1-62): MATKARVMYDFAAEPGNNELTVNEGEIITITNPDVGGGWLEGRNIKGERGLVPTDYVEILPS

Some solved cases for reference:
[
  {
    "compound": "CC[C@H](C)[C@H](N)C(=O)N[C@@H](C)C(=O)NCC(=O)N1CCC[C@H]1C(=O)N1CCC[C@H]1C(=O)N[C@H](C(=O)N1CCC[C@H]1C(=O)N1CCC[C@H]1C(=O)N[C@@H](CCCNC(=N)N)C(=O)N[C@@H](CCC(N)=O)C(=O)N[C@@H](CO)C(=O)O)C(C)C [Peptide P9] (H-IAGPPVPPRQS-OH)",
    "quantity measured": "Kd",
    "reported measurement": "> 200 µM"
  },
  {
    "compound": "CC[C@H](C)[C@H](NC(=O)[C@H](C)NC(=O)[C@@H]1CCCN1C(=O)[C@@H]1CCCN1C(=O)[C@H](CO)NC(=O)[C@H](CC(=O)O)NC(=O)[C@@H](N)CC(C)C)C(=O)N1CCC[C@H]1C(=O)N1CCC[C@H]1C(=O)N[C@@H](CCCNC(=N)N)C(=O)N[C@@H](CCC(N)=O)C(=O)N1CCC[C@H]1C(=O)N[C@H](C(=O)N[C@@H](CO)C(=O)N[C@@H](CCCCN)C(=O)O)[C@@H](C)O [Peptide P4] (H-LDSPPAIPPRQPTSK-OH)",
    "quantity measured": "Kd",
    "reported measurement": "> 200 µM"
  },
  {
    "compound": "CC(C)[C@H](N)C(=O)N1CCC[C@H]1C(=O)N[C@H](C(=O)N1CCC[C@H]1C(=O)N1CCC[C@H]1C(=O)N1CCC[C@H]1C(=O)N[C@H](C(=O)N1CCC[C@H]1C(=O)N1CCC[C@H]1C(=O)N[C@@H](CCCNC(=N)N)C(=O)N[C@@H](CCCNC(=N)N)C(=O)N[C@@H](CCCNC(=N)N)C(=O)O)C(C)C)C(C)C [RP1, reference compound]",
    "quantity measured": "Kd",
    "reported measurement": "> 200 µM"
  }
]

**Query** Bench note: what Kd did CC(C)[C@H](NC(=O)[C@@H]1CCCN1C(=O)[C@@H]1CCCN1C(=O)[C@H](C)NC(=O)[C@H](CCC(=O)O)NC(=O)[C@H](CS)NC(=O)[C@@H](N)CCCNC(=N)N)C(=O)N1CCC[C@H]1C(=O)N1CCC[C@H]1C(=O)N[C@@H](CCCNC(=N)N)C(=O)N[C@@H](CCCNC(=N)N)C(=O)N[C@@H](CCC(=O)O)C(=O)N[C@@H](CCCNC(=N)N)C(=O)NCC(=O)O [RP2, reference compound] (H-RCEAPPVPPRRERG-OH) show?
**Result** > 200 µM

**Query** Record: CC[C@H](C)[C@H](NC(=O)[C@H](Cc1c[nH]cn1)NC(=O)[C@@H](N)CCC(N)=O)C(=O)N1CCC[C@H]1C(=O)N[C@@H](CCCCN)C(=O)N[C@@H](CC(C)C)C(=O)N1CCC[C@H]1C(=O)N1CCC[C@H]1C(=O)N[C@@H](CCCCN)C(=O)N[C@H](C(=O)N[C@@H](Cc1ccc(O)cc1)C(=O)O)[C@@H](C)O [Peptide P10] (H-QHIPKLPPKTY-OH; N-terminus and C-terminus assumed)
**Result** > 200 µM

**Query** Record: CC(C)C[C@H](NC(=O)[C@@H]1CCCN1C(=O)[C@@H]1CCCN1C(=O)[C@H](CO)NC(=O)[C@@H]1CCCN1C(=O)[C@H](CC(C)C)NC(=O)[C@H](Cc1c[nH]cn1)NC(=O)[C@@H](N)CCCNC(=N)N)C(=O)N[C@H](C(=O)N[C@@H](CCC(N)=O)C(=O)O)[C@@H](C)O [Peptide P8] (H-RHLPSPPLTQ-OH; N-terminus and C-terminus assumed)
**Result** > 200 µM

**Query** Record: CC(C)C[C@H](NC(=O)[C@@H]1CCCN1C(=O)[C@@H](NC(=O)[C@H](CCCNC(=N)N)NC(=O)[C@@H]1CCCN1C(=O)[C@H](CO)NC(=O)[C@H](CC(N)=O)NC(=O)[C@@H]1CCCN1C(=O)[C@H](C)NC(=O)[C@@H](N)CO)[C@@H](C)O)C(=O)N[C@H](C(=O)N1CCC[C@H]1C(=O)N1CCC[C@H]1C(=O)N1CCC[C@H]1C(=O)N[C@@H](C)C(=O)N[C@@H](CO)C(=O)O)[C@@H](C)O [Peptide P1] (H-SAPNSPRTPLTPPPAS-OH)
**Result** > 200 µM
